- Substrate: NC(=O)C[C@H](N)C(=O)O
- assayOverview: purified protein
- Type: biochemical, Escherichia coli
- conditionsUsed: 20 mM Tris-HCl pH 8.0, 20 °C, L-Asn 0-84 mM
Cut-off 300 s⁻¹ on kcat: below means YES, at or above means NO.

Answered cases to consult:
{"protein": "EcAIII (Escherichia coli K-12; M200I) (protein, untagged as described; EcAIII gene in pET11d, bacterial expression; precursor autoproteolytically matured to subunits alpha and beta from one gene, (alphabeta)2; purified by DEAE and SEC) chain 1: GKAVIAIHGGAGAISRAQMSLQQELRYIEALSAIVETGQKMLEAGESALDVVTEAVRLLEECPLFNAGIGAVFTRDETHELDACVMDGNTLKAGAVAGVSHLRNPVLAARLVMEQSPHVMMIGEGAENFAFARGMERVSPEIFSTSLRYEQLLAARKEGATVLDHSGAPLDEKQKMG chain 2: TVGAVALDLDGNLAAATSTGGITNKLPGRVGDSPLVGAGCYANNASVAVSCTGTGEVFIRALAAYDIAALMDYGGLSLAEACERVVMEKLPALGGSGGLIAIDHEGNVALPFNTEGMYRAWGYAGDTPTTGIYREKGDTVATQ", "category": "NO"}
{"protein": "EcAIII (Escherichia coli K-12) (protein, untagged as described; EcAIII gene in pET11d, bacterial expression; precursor autoproteolytically matured to subunits alpha and beta from one gene, (alphabeta)2; purified by DEAE and SEC) chain 1: GKAVIAIHGGAGAISRAQMSLQQELRYIEALSAIVETGQKMLEAGESALDVVTEAVRLLEECPLFNAGIGAVFTRDETHELDACVMDGNTLKAGAVAGVSHLRNPVLAARLVMEQSPHVMMIGEGAENFAFARGMERVSPEIFSTSLRYEQLLAARKEGATVLDHSGAPLDEKQKMG chain 2: TVGAVALDLDGNLAAATSTGGMTNKLPGRVGDSPLVGAGCYANNASVAVSCTGTGEVFIRALAAYDIAALMDYGGLSLAEACERVVMEKLPALGGSGGLIAIDHEGNVALPFNTEGMYRAWGYAGDTPTTGIYREKGDTVATQ", "category": "NO"}
{"protein": "EcAIII (Escherichia coli K-12; M200L) (protein, untagged as described; EcAIII gene in pET11d, bacterial expression; precursor autoproteolytically matured to subunits alpha and beta from one gene, (alphabeta)2; purified by DEAE and SEC) chain 1: GKAVIAIHGGAGAISRAQMSLQQELRYIEALSAIVETGQKMLEAGESALDVVTEAVRLLEECPLFNAGIGAVFTRDETHELDACVMDGNTLKAGAVAGVSHLRNPVLAARLVMEQSPHVMMIGEGAENFAFARGMERVSPEIFSTSLRYEQLLAARKEGATVLDHSGAPLDEKQKMG chain 2: TVGAVALDLDGNLAAATSTGGLTNKLPGRVGDSPLVGAGCYANNASVAVSCTGTGEVFIRALAAYDIAALMDYGGLSLAEACERVVMEKLPALGGSGGLIAIDHEGNVALPFNTEGMYRAWGYAGDTPTTGIYREKGDTVATQ", "category": "YES"}
{"protein": "EcAIII (Escherichia coli K-12; M200K) (protein, untagged as described; EcAIII gene in pET11d, bacterial expression; precursor autoproteolytically matured to subunits alpha and beta from one gene, (alphabeta)2; purified by DEAE and SEC) chain 1: GKAVIAIHGGAGAISRAQMSLQQELRYIEALSAIVETGQKMLEAGESALDVVTEAVRLLEECPLFNAGIGAVFTRDETHELDACVMDGNTLKAGAVAGVSHLRNPVLAARLVMEQSPHVMMIGEGAENFAFARGMERVSPEIFSTSLRYEQLLAARKEGATVLDHSGAPLDEKQKMG chain 2: TVGAVALDLDGNLAAATSTGGKTNKLPGRVGDSPLVGAGCYANNASVAVSCTGTGEVFIRALAAYDIAALMDYGGLSLAEACERVVMEKLPALGGSGGLIAIDHEGNVALPFNTEGMYRAWGYAGDTPTTGIYREKGDTVATQ", "category": "YES"}
{"protein": "EcAIII (Escherichia coli K-12; M200T) (protein, untagged as described; EcAIII gene in pET11d, bacterial expression; precursor autoproteolytically matured to subunits alpha and beta from one gene, (alphabeta)2; purified by DEAE and SEC) chain 1: GKAVIAIHGGAGAISRAQMSLQQELRYIEALSAIVETGQKMLEAGESALDVVTEAVRLLEECPLFNAGIGAVFTRDETHELDACVMDGNTLKAGAVAGVSHLRNPVLAARLVMEQSPHVMMIGEGAENFAFARGMERVSPEIFSTSLRYEQLLAARKEGATVLDHSGAPLDEKQKMG chain 2: TVGAVALDLDGNLAAATSTGGTTNKLPGRVGDSPLVGAGCYANNASVAVSCTGTGEVFIRALAAYDIAALMDYGGLSLAEACERVVMEKLPALGGSGGLIAIDHEGNVALPFNTEGMYRAWGYAGDTPTTGIYREKGDTVATQ", "category": "YES"}

Please examine the following record next.
Confirm or reject: kcat of EcAIII (Escherichia coli K-12; M200W) (protein, untagged as described; EcAIII gene in pET11d, bacterial expression; precursor autoproteolytically matured to subunits alpha and beta from one gene, (alphabeta)2; purified by DEAE and SEC) chain 1: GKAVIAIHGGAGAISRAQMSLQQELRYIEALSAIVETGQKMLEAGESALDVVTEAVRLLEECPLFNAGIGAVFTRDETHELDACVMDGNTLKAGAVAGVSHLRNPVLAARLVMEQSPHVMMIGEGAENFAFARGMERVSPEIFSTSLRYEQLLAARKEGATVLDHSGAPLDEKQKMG chain 2: TVGAVALDLDGNLAAATSTGGWTNKLPGRVGDSPLVGAGCYANNASVAVSCTGTGEVFIRALAAYDIAALMDYGGLSLAEACERVVMEKLPALGGSGGLIAIDHEGNVALPFNTEGMYRAWGYAGDTPTTGIYREKGDTVATQ lies strictly below 300 s⁻¹
YES
